Hello, the source for this data is ChEMBL document CHEMBL5046246, in case you need it.

System: Mycolicibacterium phlei
assay_text: Antibacterial activity against Mycobacterium phlei assessed as reduction in bacterial growth by double dilution method
Type: functional
measurement_type: MIC (µg/mL)
Answer with a number only, understood to be in µg/mL.

# compound, observed_value
data = [
    ("Cc1cc(O)cc2cc3c(c(O)c12)C(=O)c1c(O)cc(O)cc1C3C1c2cc(O)cc(O)c2C(=O)c2c1cc1cc(O)cc(C)c1c2O (racemic)", 1),
    ("Cc1cc(O)cc2cc3c(c(O)c12)C(=O)c1c(O)cc(O)cc1[C@H]3[C@@H]1c2cc(O)cc(O)c2C(=O)c2c1cc1cc(O)cc(C)c1c2O", 1.9),
    ("Cc1cc(O)cc2cc3c(c(O)c12)C(=O)c1c(O)cc(O)cc1C3=O", 7.7),
    ("Cc1cc(O)cc2cc3c(c(O)c12)C(=O)c1c(O)cc(O)cc1[C@@H]3[C@H]1c2cc(O)cc(O)c2C(=O)c2c1cc1cc(O)cc(C)c1c2O", 1.9),
    ("Cc1cc(O)cc2cc3c(c(O)c12)C(=O)c1c(O)cc(O)cc1[C@H]3[C@H]1c2cc(O)cc(O)c2C(=O)c2c1cc1cc(O)cc(C)c1c2O", 1.9),
]

Could you now look at the following compound, please?
[in] What value of MIC on Mycolicibacterium phlei does O=C(O)c1cn(C2CC2)c2cc(N3CCNCC3)c(F)cc2c1=O have?
[out] 0.1
